System: K562
assay_details: Antiproliferative activity against human K562 cells assessed as growth inhibition by MTT assay
Type: functional, cell-based
pIC50: −log10 of the molar value.
measured_quantity: pIC50

Known results for compounds:
structure_smiles_string: C=C1C(=O)[C@@]23C(=O)OC[C@]4([C@@H](OC(C)=O)CCC(C)(C)[C@H]4C=O)[C@@H]2CC[C@H]1[C@H]3OC(=O)c1ccc(C)cc1
experimental_value: 5.88
--
structure_smiles_string: C=C1C(=O)[C@@]23C(=O)OC[C@]4([C@@H](OC(C)=O)CCC(C)(C)[C@H]4C=O)[C@@H]2CC[C@H]1[C@H]3OC(=O)c1ccc(Cl)cc1
experimental_value: 6.06
--
structure_smiles_string: C=C1C(=O)[C@@]23C(=O)OC[C@]4([C@@H](OC(C)=O)CCC(C)(C)[C@H]4C=O)[C@@H]2CC[C@H]1[C@H]3OC(=O)CC
experimental_value: 5.82
--
structure_smiles_string: C=C1C(=O)[C@@]23C(=O)OC[C@]4([C@@H](OC(C)=O)CCC(C)(C)[C@H]4C=O)[C@@H]2CC[C@H]1[C@H]3OC(=O)CCCC
experimental_value: 5.81
--
structure_smiles_string: C=C1C(=O)[C@@]23C(=O)OC[C@]4([C@@H](OC(C)=O)CCC(C)(C)[C@H]4C=O)[C@@H]2CC[C@H]1[C@H]3OC(=O)c1ccc(C(F)(F)F)cc1
experimental_value: 5.50

A: C=C1C(=O)[C@@]23C(=O)OC[C@]4([C@@H](OC(C)=O)CCC(C)(C)[C@H]4C=O)[C@@H]2CC[C@H]1[C@H]3OC(=O)c1ccccc1Cl
B: C=C1C(=O)[C@@]23C(=O)OC[C@]4([C@@H](OC(C)=O)CCC(C)(C)[C@H]4C=O)[C@@H]2CC[C@H]1[C@H]3OC(=O)c1ccc([N+](=O)[O-])cc1
When their pIC50 values are compared, which is larger, A or B ? Output the label that corresponds to your choice.
A
(A: 6.41, B: 5.94)

====

Test system: MGC-803
assay_details: Antiproliferative activity against human MGC803 cells assessed as growth inhibition by MTT assay
Type: functional, cell-based
measured_quantity: IC50 (nM)

Known results for compounds:
structure_smiles_string: C=C1C(=O)[C@@]23C(=O)OC[C@]4([C@@H](OC(C)=O)CCC(C)(C)[C@H]4C=O)[C@@H]2CC[C@H]1[C@H]3OC(C)=O
IC50 [nM]: 3470
//
structure_smiles_string: C=C1C(=O)[C@@]23C(=O)OC[C@]4([C@@H](OC(C)=O)CCC(C)(C)[C@H]4C=O)[C@@H]2CC[C@H]1[C@H]3OC(=O)c1ccc(C)cc1
IC50 [nM]: 1900

a: C=C1C(=O)[C@@]23C(=O)OC[C@]4([C@@H](OC(C)=O)CCC(C)(C)[C@H]4C=O)[C@@H]2CC[C@H]1[C@H]3OC(=O)c1ccc([N+](=O)[O-])cc1
b: C=C1C(=O)[C@@]23C(=O)OC[C@]4([C@@H](OC(C)=O)CCC(C)(C)[C@H]4C=O)[C@@H]2CC[C@H]1[C@H]3OC(=O)CC
Hi there, can you help? I need to know whether a or b has lower measured IC50. Output the label that corresponds to your choice.
a

====

Test system: MGC-803
assay_details: Antiproliferative activity against human MGC803 cells assessed as growth inhibition by MTT assay
Type: functional, cell-based
pIC50: −log10 of the molar value.
measured_quantity: pIC50

Known results for compounds:
structure_smiles_string: C=C1C(=O)[C@@]23C(=O)OC[C@]4([C@@H](OC(C)=O)CCC(C)(C)[C@H]4C=O)[C@@H]2CC[C@H]1[C@H]3OC(=O)CCCC
measured_quantity: pIC50
experimental_value: 5.60
//
structure_smiles_string: C=C1C(=O)[C@@]23C(=O)OC[C@]4([C@@H](OC(C)=O)CCC(C)(C)[C@H]4C=O)[C@@H]2CC[C@H]1[C@H]3OC(=O)c1ccccc1Cl
measured_quantity: pIC50
experimental_value: 5.89

1: C=C1C(=O)[C@@]23C(=O)OC[C@]4([C@@H](OC(C)=O)CCC(C)(C)[C@H]4C=O)[C@@H]2CC[C@H]1[C@H]3OC(=O)c1ccc(OC)cc1
2: C=C1C(=O)[C@@]23C(=O)OC[C@]4([C@@H](OC(C)=O)CCC(C)(C)[C@H]4C=O)[C@@H]2CC[C@H]1[C@H]3OC(=O)c1ccc(C(F)(F)F)cc1
Hi there, can you help? I need to know whether 1 or 2 has lower measured pIC50. Output the label that corresponds to your choice.
2

====

System: K562
assay_details: Antiproliferative activity against human K562 cells assessed as growth inhibition by MTT assay
Format: functional, cell-based
pIC50: −log10 of the molar value.
measured_quantity: pIC50

structure_smiles_string: C=C1C(=O)[C@@]23C(=O)OC[C@]4([C@@H](OC(C)=O)CCC(C)(C)[C@H]4C=O)[C@@H]2CC[C@H]1[C@H]3OC(=O)c1ccccc1
experimental_value: 5.85

structure_smiles_string: C=C1C(=O)[C@@]23C(=O)OC[C@]4([C@@H](OC(C)=O)CCC(C)(C)[C@H]4C=O)[C@@H]2CC[C@H]1[C@H]3OC(C)=O
experimental_value: 5.76

structure_smiles_string: C=C1C(=O)[C@@]23C(=O)OC[C@]4([C@@H](OC(C)=O)CCC(C)(C)[C@H]4C=O)[C@@H]2CC[C@H]1[C@H]3OC(=O)c1ccc(OC)cc1
experimental_value: 5.72
